For each record, write down the corresponding ADCC Cytotoxicity (%), Donor 2, 1 nM.
# tested.target: human ROR1 (hROR1) on cells (human, UniProt Q01973 30-937)
# Sequence (Q01973 30-937): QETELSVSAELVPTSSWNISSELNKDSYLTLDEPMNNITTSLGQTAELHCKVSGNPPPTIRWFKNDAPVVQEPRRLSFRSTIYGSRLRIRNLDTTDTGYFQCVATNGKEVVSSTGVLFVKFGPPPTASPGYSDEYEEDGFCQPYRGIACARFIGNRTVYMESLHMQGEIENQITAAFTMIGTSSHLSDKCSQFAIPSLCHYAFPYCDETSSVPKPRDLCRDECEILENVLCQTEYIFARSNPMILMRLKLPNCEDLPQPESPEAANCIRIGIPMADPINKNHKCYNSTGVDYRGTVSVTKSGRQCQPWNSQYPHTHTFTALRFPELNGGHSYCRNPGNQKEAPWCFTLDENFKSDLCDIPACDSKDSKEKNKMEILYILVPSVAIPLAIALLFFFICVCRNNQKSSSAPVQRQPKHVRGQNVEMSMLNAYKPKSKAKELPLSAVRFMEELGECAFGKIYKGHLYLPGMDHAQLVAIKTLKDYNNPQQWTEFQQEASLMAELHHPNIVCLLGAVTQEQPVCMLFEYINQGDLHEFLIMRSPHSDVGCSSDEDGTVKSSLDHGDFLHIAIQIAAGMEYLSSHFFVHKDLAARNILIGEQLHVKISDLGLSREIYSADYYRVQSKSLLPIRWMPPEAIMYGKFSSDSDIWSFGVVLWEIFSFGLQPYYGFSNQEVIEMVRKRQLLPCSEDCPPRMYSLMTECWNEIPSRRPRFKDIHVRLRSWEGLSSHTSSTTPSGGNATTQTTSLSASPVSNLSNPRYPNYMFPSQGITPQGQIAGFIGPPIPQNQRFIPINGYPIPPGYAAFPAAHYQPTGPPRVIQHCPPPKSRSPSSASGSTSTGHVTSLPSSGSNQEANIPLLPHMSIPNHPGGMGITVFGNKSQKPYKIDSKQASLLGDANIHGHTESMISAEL
# test: cell-based or functional assay

{"binder": "PR001357 (antibody, human IgG1, kappa, V domains shown, fully human IgG1, kappa) VH: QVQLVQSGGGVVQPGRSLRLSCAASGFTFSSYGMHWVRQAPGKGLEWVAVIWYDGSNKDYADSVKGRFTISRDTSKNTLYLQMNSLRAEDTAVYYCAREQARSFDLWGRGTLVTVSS VL: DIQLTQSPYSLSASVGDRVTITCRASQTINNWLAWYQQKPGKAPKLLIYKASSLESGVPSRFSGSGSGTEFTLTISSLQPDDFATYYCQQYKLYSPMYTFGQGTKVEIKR", "ADCC Cytotoxicity (%), Donor 2, 1 nM": "17.4%"}

Next:
Specify ADCC Cytotoxicity (%), Donor 2, 1 nM for PR001354 (antibody, human IgG1, kappa, V domains shown, fully human IgG1, kappa; also called anti-ROR1 1015M2-C9 hIgG1; PR001354(WT)) VH: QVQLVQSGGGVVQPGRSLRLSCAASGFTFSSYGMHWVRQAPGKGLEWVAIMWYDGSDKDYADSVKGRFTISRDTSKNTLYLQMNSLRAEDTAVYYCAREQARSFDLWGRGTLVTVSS VL: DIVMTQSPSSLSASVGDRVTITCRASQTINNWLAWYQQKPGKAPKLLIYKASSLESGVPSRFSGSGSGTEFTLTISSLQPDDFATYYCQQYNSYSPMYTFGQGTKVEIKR and stop.
14.4%
